Attribution: paper PMC9804470

target: SHP2 (Homo sapiens); construct: catalytic domain of human SHP2 (amino acids 225–541); His10 (N); made in house; host or cells: E. coli B21 (DE3); assay: Determination of KI using Michaelis-Menten kinetics; assay type: biochemical; conditions: inhibitor 0, 75, 100, 150 nM; DiFMUP 100, 50, 25, 12.5 µM; best fit, R2 0.9007; read-out: KI by Michaelis-Menten kinetics, competitive model
Sequence (Q06124 225-541): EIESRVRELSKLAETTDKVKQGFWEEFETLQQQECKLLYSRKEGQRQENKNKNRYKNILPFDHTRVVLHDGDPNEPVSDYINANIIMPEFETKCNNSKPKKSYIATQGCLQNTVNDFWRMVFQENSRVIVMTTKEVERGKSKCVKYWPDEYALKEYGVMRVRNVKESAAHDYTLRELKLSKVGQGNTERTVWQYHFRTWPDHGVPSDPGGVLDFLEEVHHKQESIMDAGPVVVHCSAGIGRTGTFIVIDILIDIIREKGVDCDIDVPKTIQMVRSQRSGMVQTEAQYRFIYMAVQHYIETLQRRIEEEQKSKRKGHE
Property label: pKi
pKi is defined as minus the log10 of a concentration measured in mol/L.

stdin: Tell me the measured pKi of O=C(O)Cc1ccc(N/N=C2\C(=O)N(c3ccc([N+](=O)[O-])cc3)N=C2c2ccc([N+](=O)[O-])cc2)cc1 , please.
stdout: 7.49
